target: recombinant α1β2γ2 GABAA receptors (Homo sapiens, UniProt P14867+P47870); construct: expressed in transfected cells; experiment: Patch clamp electrophysiology, QPatch, LTK cells; assay type: cell-based; conditions: 10 μM test article, GABA EC20 = 2 μM, read-out: GABA (α1β2γ2) Qpatch in Ltk, % efficacy at 10 μM
Sequence (P14867 28-456): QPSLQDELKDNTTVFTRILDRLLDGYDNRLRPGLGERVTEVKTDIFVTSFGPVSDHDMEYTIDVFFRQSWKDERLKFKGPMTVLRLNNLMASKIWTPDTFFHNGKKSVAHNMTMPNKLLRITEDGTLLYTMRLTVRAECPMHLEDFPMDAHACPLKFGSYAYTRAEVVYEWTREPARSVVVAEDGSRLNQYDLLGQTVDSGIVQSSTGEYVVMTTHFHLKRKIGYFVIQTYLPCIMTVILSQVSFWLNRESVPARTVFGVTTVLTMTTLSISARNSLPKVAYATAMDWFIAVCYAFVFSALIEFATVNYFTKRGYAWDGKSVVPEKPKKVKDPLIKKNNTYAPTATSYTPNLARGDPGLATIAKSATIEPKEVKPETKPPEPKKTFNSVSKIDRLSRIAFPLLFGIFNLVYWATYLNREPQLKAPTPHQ
Sequence (P47870 25-512 limits assumed): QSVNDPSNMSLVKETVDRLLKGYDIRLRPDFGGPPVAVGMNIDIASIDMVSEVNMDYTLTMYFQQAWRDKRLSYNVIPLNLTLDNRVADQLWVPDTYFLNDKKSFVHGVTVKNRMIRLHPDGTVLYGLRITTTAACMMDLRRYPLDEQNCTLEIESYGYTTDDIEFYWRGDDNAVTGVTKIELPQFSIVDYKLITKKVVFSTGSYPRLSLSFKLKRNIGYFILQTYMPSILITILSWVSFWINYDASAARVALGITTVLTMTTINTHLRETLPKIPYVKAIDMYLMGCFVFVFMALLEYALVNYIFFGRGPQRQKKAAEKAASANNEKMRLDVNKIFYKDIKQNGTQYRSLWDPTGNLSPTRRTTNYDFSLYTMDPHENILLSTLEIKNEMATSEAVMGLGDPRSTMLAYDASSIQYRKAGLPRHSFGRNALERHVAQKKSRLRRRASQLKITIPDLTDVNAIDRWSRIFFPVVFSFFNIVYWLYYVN
Sequence (P18507 40-475 partner): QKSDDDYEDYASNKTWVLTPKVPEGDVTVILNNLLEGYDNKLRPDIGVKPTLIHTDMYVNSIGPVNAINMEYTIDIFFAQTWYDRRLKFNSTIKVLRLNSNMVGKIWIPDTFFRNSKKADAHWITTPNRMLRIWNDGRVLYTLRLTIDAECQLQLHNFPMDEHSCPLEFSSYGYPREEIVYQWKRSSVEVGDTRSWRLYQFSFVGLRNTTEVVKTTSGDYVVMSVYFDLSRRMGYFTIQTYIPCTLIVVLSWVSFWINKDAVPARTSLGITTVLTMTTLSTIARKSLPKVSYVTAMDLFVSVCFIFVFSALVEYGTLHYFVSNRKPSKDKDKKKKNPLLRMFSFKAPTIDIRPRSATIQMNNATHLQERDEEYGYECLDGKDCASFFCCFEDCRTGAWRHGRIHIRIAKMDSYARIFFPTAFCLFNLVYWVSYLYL
Readout: Emax at 10 µM

These solved cases illustrate the format of a correct answer.
{"columns": ["Smiles Representation", "Target Or Test System", "Emax at 10 µM"],
 "data": [
  ["Cc1nnnn1CC(=O)[C@H]1CC[C@H]2[C@@H]3CC[C@@H]4C[C@@](O)(CF)CC[C@@H]4[C@H]3CC[C@]12C", "recombinant α1β2γ2 GABAA receptors (Homo sapiens, UniProt P14867+P47870)", "100 to 500%"],
  ["Cc1cnn(CC(=O)[C@H]2CC[C@H]3[C@@H]4C[C@@H](F)[C@H]5C[C@](C)(O)CC[C@@H]5[C@H]4CC[C@]23C)n1", "recombinant α1β2γ2 GABAA receptors (Homo sapiens, UniProt P14867+P47870)", "100 to 500%"],
  ["C[C@@]1(O)CC[C@H]2[C@@H](CC[C@@H]3[C@@H]2CC[C@]2(C)[C@@H](C(=O)Cn4ccnn4)CC[C@@H]32)C1", "recombinant α1β2γ2 GABAA receptors (Homo sapiens, UniProt P14867+P47870)", "100 to 500%"]
]}

Per the record, CO[C@H]1C[C@H]2[C@@H](CC[C@@H]3[C@@H]2CC[C@]2(C)[C@@H](C(=O)Cn4ccnn4)CC[C@@H]32)C[C@]1(C)O has Emax at 10 µM of 100 to 500%

Per the record, CC[C@@]1(O)CC[C@H]2[C@H](CC[C@@H]3[C@@H]2CC[C@]2(C)[C@@H](C(=O)Cn4nnc(C)n4)CC[C@@H]32)C1 has Emax at 10 µM of 10 to 100%

Per the record, COC[C@@]1(O)CC[C@H]2[C@@H](CC[C@@H]3[C@@H]2CC[C@]2(C)[C@@H](C(=O)Cn4cnnn4)CC[C@@H]32)C1 has Emax at 10 µM of 100 to 500%

Per the record, Cc1nnnn1CC(=O)[C@H]1CC[C@H]2[C@@H]3CC[C@H]4C[C@@](O)(CF)CC[C@@H]4[C@H]3CC[C@]12C has Emax at 10 µM of 100 to 500%

Per the record, CCOC[C@@]1(O)CC[C@H]2[C@@H](CC[C@@H]3[C@@H]2CC[C@]2(C)[C@@H](C(=O)Cn4nccn4)CC[C@@H]32)C1 has Emax at 10 µM of 100 to 500%

====

biological target: recombinant α1β2γ2 GABAA receptors (Homo sapiens, UniProt P14867+P47870); construct: expressed in transfected cells; assay: Patch clamp electrophysiology, QPatch, LTK cells; type: cell-based; conditions: 10 μM test article, GABA EC20 = 2 μM, read-out: GABA (α1β2γ2) Qpatch in Ltk, % efficacy at 10 μM
Readings of Emax at 10 µM for the listed compounds

{"columns": ["Compound", "Emax at 10 µM"],
 "data": [
  ["C[C@@]1(O)CC[C@@H]2[C@H]3CC[C@]4(C)[C@@H](C(=O)Cn5nccn5)CC[C@H]4[C@@H]3C[C@@H](F)[C@H]2C1 [SV-2]", "100 to 500%"],
  ["CCOC[C@@]1(O)CC[C@H]2[C@@H](CC[C@@H]3[C@@H]2CC[C@]2(C)[C@@H](C(=O)Cn4nnc(C)n4)CC[C@@H]32)C1 [SQ-6]", "100 to 500%"]
]}

Consider the record given below.
Per the record, Cc1nnnn1CC(=O)[C@H]1CC[C@H]2[C@@H]3C[C@@H](F)[C@H]4C[C@](C)(O)CC[C@@H]4[C@H]3CC[C@]12C [SV-6] has Emax at 10 µM of 100 to 500%

Data provenance: patent US20200165291A1
